Source of measurements: the supplement of paper PMC7877785

Assay: self-splicing fitness, log relative to wild type (ln ratio); higher = more splicing; Tetrahymena group I intron in knt gene, E. coli kanamycin selection, DiMSum; sequences stand for … in CUCUCU…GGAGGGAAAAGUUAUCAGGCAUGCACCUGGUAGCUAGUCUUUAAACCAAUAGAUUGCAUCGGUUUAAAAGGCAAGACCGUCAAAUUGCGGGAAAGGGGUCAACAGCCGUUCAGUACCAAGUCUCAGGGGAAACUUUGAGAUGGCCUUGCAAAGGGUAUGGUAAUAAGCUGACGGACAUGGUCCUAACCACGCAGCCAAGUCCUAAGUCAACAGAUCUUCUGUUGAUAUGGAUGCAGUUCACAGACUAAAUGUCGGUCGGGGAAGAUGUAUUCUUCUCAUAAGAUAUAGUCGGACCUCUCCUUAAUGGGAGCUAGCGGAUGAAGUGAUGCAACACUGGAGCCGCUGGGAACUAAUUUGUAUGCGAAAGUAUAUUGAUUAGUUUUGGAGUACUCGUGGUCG;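 further: selection with 25 µg/mL kanamycin versus none on LB agar overnight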
Details: 37 °C
readout: self-splicing fitness (ln)
Hey, just send me the number, nothing else.

Record excerpt, results attached:
{"sequence.record": "GUAUAGCAAUAUUACGCCUA", "self-splicing fitness (ln)": -0.116}
{"sequence.record": "GCGAAGCAAUAUUACGCGAU", "self-splicing fitness (ln)": -1.74}
{"sequence.record": "GCGUAGCAAUAUUACGAGCG", "self-splicing fitness (ln)": -1.62}

Problem: Requested field: self-splicing fitness (ln). Item: AACGAGCAAUAUUACGUUCC
Solution: -2.41

Problem: Record: GGCAAGCAAUAUUACGUCUA
Solution: 0.16

Problem: Record: CUCCAGCAAUAUUACGCUAU
Solution: -2.44

Problem: Record: GAACAGCAAUAUUACGAUUC
Solution: -1.21

Problem: Record: CACUAGCAAUAUUACGGUGA
Solution: -2.22

Problem: Record: AGAAAGCAAUAUUACGAGCA
Solution: -0.262

Problem: Record: GGUAAGCAAUAUUACGUCGU
Solution: -0.732

Problem: Record: UUGUAGCAAUAUUACGGCCA
Solution: 0.581

Problem: Record: UCCGAGCAAUAUUACGGUUU
Solution: -1.02

Problem: Record: AGACAGCAAUAUUACGCAAA
Solution: -1.37

Problem: Record: CGGGAGCAAUAUUACGAUUG
Solution: -1.72

Problem: Record: CACAAGCAAUAUUACGGGCG
Solution: 0.319

Problem: Record: CUGCAGCAAUAUUACGUAGC
Solution: -1.95

Problem: Record: CUUAAGCAAUAUUACGGUAU
Solution: -2.35

Problem: Record: GGCAAGCAAUAUUACGUACA
Solution: 0.296

Problem: Record: UUGCAGCAAUAUUACGUUUC
Solution: -3.17

Problem: Record: CUUAAGCAAUAUUACGUGCC
Solution: -1.53

Problem: Record: CGAGAGCAAUAUUACGGGCA
Solution: -2.53

Problem: Record: CGGUAGCAAUAUUACGGACA
Solution: -1.34

* * *

Assay: self-splicing fitness, log relative to wild type (ln ratio); higher = more splicing; Tetrahymena group I intron in knt gene, E. coli kanamycin selection, DiMSum; sequences stand for … in CUCUCU…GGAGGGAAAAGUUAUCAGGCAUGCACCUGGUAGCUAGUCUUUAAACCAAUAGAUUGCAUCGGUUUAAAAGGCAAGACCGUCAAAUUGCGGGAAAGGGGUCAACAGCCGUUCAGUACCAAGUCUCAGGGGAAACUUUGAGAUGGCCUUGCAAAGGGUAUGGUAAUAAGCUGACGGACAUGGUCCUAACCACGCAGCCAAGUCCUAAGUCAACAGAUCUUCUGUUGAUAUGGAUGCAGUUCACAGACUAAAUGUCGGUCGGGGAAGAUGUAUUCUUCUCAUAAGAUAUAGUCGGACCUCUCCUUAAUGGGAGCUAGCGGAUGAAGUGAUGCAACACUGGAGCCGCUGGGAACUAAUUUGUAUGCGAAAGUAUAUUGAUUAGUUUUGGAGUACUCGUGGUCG
Details: 30 °C
Given measured self-splicing fitness (ln), output yes if it is greater than or equal to -3 and no if not.

Consider the following illustrative entries.
{"sequence.record": "GUACAGCAAUAUUACGCGUG", "cat": "yes"}
{"sequence.record": "GUGUAGCAAUAUUACGGGAA", "cat": "yes"}
{"sequence.record": "GCCUAGCAAUAUUACGAAGU", "cat": "yes"}

Problem: Dear colleague, could you confirm whether GACCAGCAAUAUUACGCCAU has self-splicing fitness (ln) at or above -3?
Solution: no

Problem: Record: UAUCAGCAAUAUUACGCCGC
Solution: yes

Problem: Record: GCAGAGCAAUAUUACGCAUU
Solution: no

Problem: Record: GGCAAGCAAUAUUACGGCCG
Solution: yes

Problem: Record: AAAAAGCAAUAUUACGCAGU
Solution: yes
